Test system: BDF1 mice, Adenocarcinoma 755 s.c., tumor weight T/C
Assay: NCI In Vivo Anticancer Drug Screen. Data for tumor model Adenocarcinoma 755 (subcutaneous) in B6D2F1 (BDF1) mice
Conditions: endpoint: mean tumor weight; dose: 25.0 mg/kg/injection; schedule: Q01DX011 (ip); vehicle: methylcellulose (MC); higher = larger tumour
Assay endpoint: T/C

C[C@@H]1C[C@@H]([C@H](O)CC2CC(=O)NC(=O)C2)C(=O)[C@@H](C)C1 : 47 % of control
O=C(O)CC(Nc1ncnc2nc[nH]c12)C(=O)O (stereo not drawn) : 98 % of control

Next:
Consider "Nc1nc(=S)c2ncn(C3CCCCC3)c2[nH]1" . Its measured T/C is 86 % of control

====

System: BDF1 mice, Adenocarcinoma 755 s.c., tumor weight T/C
Assay: NCI In Vivo Anticancer Drug Screen. Data for tumor model Adenocarcinoma 755 (subcutaneous) in B6D2F1 (BDF1) mice
Conditions: endpoint: mean tumor weight; dose: 12.5 mg/kg/injection; schedule: Q01DX011 (ip); vehicle: methylcellulose (MC); higher = larger tumour
# T/C listing for each entry below

CC(C)Sc1nc(N)nc2nc[nH]c12 : 1 % of control

Value of T/C reported for the compound "CCCCn1cnc2c(SCc3ccc(Br)cc3)nc(N)nc21" is 47 % of control

The value of T/C measured for the compound "Cc1cccc(CSc2ncnc3nc[nH]c23)n1" turned out to be 66 % of control

Value of T/C reported for the compound "O=S(=O)(F)c1ncnc2nc[nH]c12" is 72 % of control

get_value(item= CCNc1ncnc2c1cnn2C1CCCO1 (stereo not given) , readout=T/C) returns 3 % of control

Entry under test: Nc1nc(SCc2ccccc2F)c2ncn(C3OC(CO)C(O)C3O)c2n1 (stereo not given) . Its T/C was 1 % of control

Entry under test: "C[C@@H]1C[C@@H]([C@H](O)CC2CC(=O)NC(=O)C2)C(=O)[C@@H](C)C1" . Its T/C was 71 % of control

"CC(C)Cn1cnc2c(Sc3c([N+](=O)[O-])ncn3C)nc(N)nc21" yielded T/C of 7 % of control

# compound "c1cncc(CSc2ncnc3nc[nH]c23)c1" ; its T/C = 4 % of control

GET /value?item= Nc1nc(SCc2ccc(F)cc2)c2ncn(C3OC(CO)C(O)C3O)c2n1 (stereo not given) &field=T/C returns 19 % of control

====

Measured T/C of individual entries
Test system: BDF1 mice, Adenocarcinoma 755 s.c., tumor weight T/C
Assay: NCI In Vivo Anticancer Drug Screen. Data for tumor model Adenocarcinoma 755 (subcutaneous) in B6D2F1 (BDF1) mice
Conditions: endpoint: mean tumor weight; dose: 25.0 mg/kg/injection; schedule: Q01DX011 (ip); vehicle: saline; higher = larger tumour

For "CCCNc1ncnc2c1cnn2C" the molecule record lists T/C as 8 % of control

For "c1nc([N+]23CCC(CC2)CC3)c2[nH]cnc2n1" the molecule record lists T/C as 56 % of control

The recorded T/C for "Cc1nc2nncn2c(=O)[nH]1" is 67 % of control

====

Test system: BDF1 mice, Adenocarcinoma 755 s.c., tumor weight T/C
Assay: NCI In Vivo Anticancer Drug Screen. Data for tumor model Adenocarcinoma 755 (subcutaneous) in B6D2F1 (BDF1) mice
Settings: endpoint: mean tumor weight; dose: 25.0 mg/kg/injection; schedule: Q01DX011 (ip); vehicle: carboxymethylcellulose (CMC); higher = larger tumour
Listing: T/C of selected molecules

Some molecules with recorded T/C:
CN(C)c1ccc2nc3ccc(=[N+](C)C)cc-3sc2c1 : 123 % of control
CCCCCn1cnc2c(=S)nc(N)[nH]c21 : 10 % of control

"[N-]=[N+]=C1N=CN=C1c1ncn[nH]1" has a reported T/C of 103 % of control

For this molecule ( "NS(=O)(=O)c1nc(=S)c2[nH]cnc2[nH]1" ), measured T/C is 108 % of control

// field: T/C; key: O=P1(N(CCCl)CCCl)NCCCO1 (stereo not given) ; value = 8 % of control

The reported value for "COS(C)(=O)=O" in terms of T/C is 113 % of control

Form: molecule = "Nc1ccc2ccccc2c1N=Nc1ccccc1" ; T/C = 68 % of control
